Sourced from patent US8637501B2

Counter-ions that a name gives are not always drawn.
Listed here: compounds with reported Ki for human MCH-1 receptor (Homo sapiens (Human)).
READOUT TYPE: Ki (nM)

a = Cl.Cn1c2c(c3ccc(-n4ccc(OCc5ccccc5)cc4=O)cc31)CNCCC2 [Example 21, hydrochloride]
b = Cl.Cn1c2c(c3ccc(-n4ccc(OCc5ccc(F)cc5F)cc4=O)cc31)CNCCC2 [Example 66, hydrochloride]
// which entry reports the smaller Ki, a or b ? The response must carry the label of the picked entry. a

I = Cn1c2c(c3ccc(-n4ccc(OCc5ccc(Cl)cn5)cc4=O)cc31)CCNCC2 [Example 50, hydrochloride]
II = Cn1c2c(c3ccc(N4CCN(CCc5ccc(F)cc5)CC4=O)cc31)CCNCC2 [Example 97, dihydrochloride]
// which entry reports the smaller Ki, I or II ? The response must carry the label of the picked entry. I

I = Cc1ccc(COc2ccn(-c3ccc4c5c(n(C)c4c3)CCCNC5)c(=O)c2)cn1 [Example 34, hydrochloride]
II = CC(=O)N1CCc2[nH]c3cc(-n4ccc(OCc5ccccc5)cc4=O)ccc3c2CC1
III = Cn1c2c(c3ccc(-n4ccc(OCc5ccc(Cl)cc5Cl)cc4=O)nc31)CNCCC2 [Example 93, hydrochloride]
Arrange these compounds by their Ki, starting with the largest number. Write the labels, ordered according to the request. II, III, I
(II: 112 nM, III: 26 nM, I: 10.6 nM)

A = Cl.Cn1c2c(c3ccc(-n4ccc(OCc5ccc(F)cn5)cc4=O)cc31)CCCNC2 [Example 19, hydrochloride]
B = Cl.Cn1c2c(c3ccc(-n4ccc(OCc5ccc(F)cn5)cc4=O)nc31)CCNCC2 [Example 81, hydrochloride]
Lab note: record which item had the higher Ki, A or B . The response must carry the label of the picked entry. B

* * *

Here, each record is paired with measured melting point data.

// below: answered compounds
[
  {
    "COMPOUND": "Cl.Cn1c2c(c3ccc(-n4ccc(OCc5ccc(F)cn5)cc4=O)cc31)CCCNC2 [Example 19]",
    "READOUT TYPE": "melting point",
    "RESULT": "268 to 275 °C (dec.)"
  },
  {
    "COMPOUND": "Cl.O=c1cc(OCc2ccccc2)ccn1-c1ccc2c3c([nH]c2c1)CCNCC3 [Example 7]",
    "READOUT TYPE": "melting point",
    "RESULT": "258 to 260 °C"
  },
  {
    "COMPOUND": "Cl.Cn1c2c(c3ccc(-n4ccc(OCc5ccccc5)cc4=O)nc31)CNCCC2 [Example 90]",
    "READOUT TYPE": "melting point",
    "RESULT": "328 to 332 °C"
  },
  {
    "COMPOUND": "Cl.Cn1c2c(c3ccc(-n4ccc(OCc5ccc(F)cn5)cc4=O)cc31)CCNCC2 [Example 40]",
    "READOUT TYPE": "melting point",
    "RESULT": "194 to 202 °C (dec.)"
  },
  {
    "COMPOUND": "CC(=O)N1CCc2[nH]c3cc(-n4ccc(OCc5ccccc5)cc4=O)ccc3c2CC1 [Example 54]",
    "READOUT TYPE": "melting point",
    "RESULT": "250 to 254 °C"
  }
]

Which melting point value belongs to Cl.Cn1c2c(c3ccc(-n4ccc(OCc5ccc(F)cc5F)cc4=O)cc31)CNCCC2 [Example 66] ? 272 to 280 °C

Cool, now Cc1ccc(-c2ccn(-c3ccc4c5c(n(C)c4c3)CCCNC5)c(=O)c2)cn1.Cl [Example 33] 245 to 250 °C (dec.)

* * *

Where a name gives a salt, the structure may show the parent alone.
READOUT TYPE: melting point

// below: answered molecules
[
  {
    "MOLECULE": "Cl.Cn1c2c(c3ccc(-n4ccc(-c5ccc(C(F)(F)F)cc5)cc4=O)cc31)CCNCC2 [Example 41]",
    "READOUT TYPE": "melting point",
    "RESULT": "306 to 310 °C (dec.)"
  },
  {
    "MOLECULE": "Cl.Cn1c2c(c3ccc(N4CCN(CCc5ccc(Cl)cc5)CC4=O)cc31)CNCCC2 [Example 64]",
    "READOUT TYPE": "melting point",
    "RESULT": "252 to 257 °C"
  },
  {
    "MOLECULE": "Cl.Cn1c2c(c3ccc(-n4ccc(OCc5ccc(F)cn5)cc4=O)cc31)CN(C1CCC1)CCC2 [Example 72]",
    "READOUT TYPE": "melting point",
    "RESULT": "260 to 265 °C"
  }
]

Which melting point value belongs to Cn1c2c(c3ccc(-n4ncc(OCc5ccc(F)cn5)cc4=O)cc31)CCNCC2 (as salt: hydrochloride) [Example 10, dihydrochloride] ? 250 to 254 °C

* * *

target: human MCH-1 receptor (Homo sapiens (Human), UniProt Q99705)
Sequence (Q99705 whole entry): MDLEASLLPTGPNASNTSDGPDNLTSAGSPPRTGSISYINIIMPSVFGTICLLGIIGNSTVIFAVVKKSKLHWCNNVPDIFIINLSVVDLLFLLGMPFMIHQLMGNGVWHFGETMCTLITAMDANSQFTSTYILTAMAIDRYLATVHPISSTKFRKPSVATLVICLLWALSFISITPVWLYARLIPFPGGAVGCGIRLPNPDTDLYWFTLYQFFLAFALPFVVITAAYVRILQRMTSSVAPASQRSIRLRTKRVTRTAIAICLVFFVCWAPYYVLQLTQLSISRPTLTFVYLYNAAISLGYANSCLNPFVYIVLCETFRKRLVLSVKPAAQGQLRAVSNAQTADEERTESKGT
Structures can show the parent of a compound that is named as a salt.
READOUT TYPE: Ki (nM)

[
  {
    "COMPOUND": "Cn1c2c(c3ccc(-n4ccc(OCc5ccc(C(F)(F)F)nc5)cc4=O)cc31)CNCCC2 [Example 24, hydrochloride]",
    "SYSTEM": "human MCH-1 receptor (Homo sapiens (Human), UniProt Q99705)",
    "UNIT OF MEASURE": "nM",
    "Ki": 6.4
  },
  {
    "COMPOUND": "Cn1c2c(c3ccc(N4CCN(CCc5ccccn5)CC4=O)cc31)CNCCC2 [Example 59, dihydrochloride]",
    "SYSTEM": "human MCH-1 receptor (Homo sapiens (Human), UniProt Q99705)",
    "UNIT OF MEASURE": "nM",
    "Ki": 44
  }
]

P = CN1CCCc2c(c3ccc(-n4ccc(OCc5ccccc5)cc4=O)cc3n2C)C1 [Example 29, hydrochloride]
Q = Cn1c2c(c3ccc(-n4ncc(OCc5ccc(C(F)(F)F)nc5)cc4=O)cc31)CNCCC2 [Example 60, hydrochloride]
// which entry reports the smaller Ki, P or Q ? The response must carry the label of the picked entry. P
(P: 5 nM, Q: 21 nM)

* * *

biological target: human MCH-1 receptor (Homo sapiens (Human), UniProt Q99705); experiment: Binding Assay for Human Melanin-Concentrating Hormone (MCH-1) Receptor; conditions: radioligand displacement, membranes from CHO-K1 cells expressing human MCH-1 receptor; Ki from IC50 by Cheng Prusoff equation; read-out: MCH1 Ki
Structures can show the parent of a compound that is named as a salt.
READOUT TYPE: Ki (nM)

// below: answered molecules
[
  {
    "MOLECULE": "Cn1c2c(c3ccc(-n4ccc(OCc5ccccc5)cc4=O)cc31)C(=O)NCCC2",
    "SYSTEM": "human MCH-1 receptor (Homo sapiens (Human), UniProt Q99705)",
    "Ki [nM]": 100
  },
  {
    "MOLECULE": "CSc1ccc(-c2ccn(-c3ccc4c5c(n(C)c4c3)CCCNC5)c(=O)c2)cc1.Cl [Example 32, hydrochloride]",
    "SYSTEM": "human MCH-1 receptor (Homo sapiens (Human), UniProt Q99705)",
    "Ki [nM]": 4.9
  },
  {
    "MOLECULE": "CC(C)N1CCCc2c(c3ccc(-n4ccc(OCc5ccccc5)cc4=O)cc3n2C)C1 [Example 31, hydrochloride]",
    "SYSTEM": "human MCH-1 receptor (Homo sapiens (Human), UniProt Q99705)",
    "Ki [nM]": 9.4
  }
]

P = Cn1c2c(c3ccc(-n4ccc(OCc5ccc(F)cc5F)cc4=O)cc31)CCNCC2 [Example 52, hydrochloride]
Q = CCN1CCCc2c(c3ccc(-n4ccc(OCc5ccccc5)cc4=O)cc3n2C)C1 [Example 30, hydrochloride]
R = Cl.Cn1c2c(c3ccc(-n4ccc(OCc5ncc(F)cc5F)cc4=O)cc31)CNCCC2 [Example 106, hydrochloride]
Arrange these molecules by their Ki, starting with the largest number. Write the labels, ordered according to the request. R, P, Q

P = Cn1c2c(c3ccc(-n4ccc(OCc5ccc(F)cc5F)cc4=O)nc31)CNCCC2 [Example 94, hydrochloride]
Q = Cl.Cn1c2c(c3ccc(-n4ccc(-c5ccc(C(F)(F)F)nc5)cc4=O)nc31)CCNCC2 [Example 78, hydrochloride]
// which entry reports the smaller Ki, P or Q ? The response must carry the label of the picked entry. P

* * *

target: human MCH-1 receptor (Homo sapiens (Human), UniProt Q99705); assay: Binding Assay for Human Melanin-Concentrating Hormone (MCH-1) Receptor; settings: radioligand displacement, membranes from CHO-K1 cells expressing human MCH-1 receptor; Ki from IC50 by Cheng Prusoff equation; read-out: MCH1 Ki
Structures can show the parent of a compound that is named as a salt.
READOUT TYPE: Ki (nM)

// below: answered compounds
[
  {
    "COMPOUND": "Cn1c2c(c3ccc(-n4ccc(-c5ccc(C(F)(F)F)cn5)cc4=O)cc31)CCNCC2 [Example 3, dihydrochloride]",
    "Ki [nM]": 10.1
  },
  {
    "COMPOUND": "Cc1ccc(COc2ccn(-c3ccc4c5c(n(C)c4c3)CCNCC5)c(=O)c2)cn1 [Example 45, dihydrochloride]",
    "Ki [nM]": 26
  },
  {
    "COMPOUND": "CC(C)N1CCc2c(n(C)c3cc(-n4ccc(OCc5ccc(F)cn5)cc4=O)ccc23)CC1 [Example 16, hydrochloride]",
    "Ki [nM]": 13.7
  },
  {
    "COMPOUND": "Cl.Cn1c2c(c3ccc(-n4ccc(OCc5ccc(Cl)cc5F)cc4=O)cc31)CNCCC2 [Example 68, hydrochloride]",
    "Ki [nM]": 8.2
  },
  {
    "COMPOUND": "Cn1c2c(c3ccc(-n4ccc(OCc5ccc(Cl)cc5F)cc4=O)cc31)CCNCC2 [Example 55, hydrochloride]",
    "Ki [nM]": 12
  }
]

A = Cn1c2c(c3ccc(-n4ccc(OCc5ccc(Cl)cc5Cl)cc4=O)cc31)CCNCC2
B = Cl.Cn1c2c(c3ccc(-n4ccc(-c5ccc(C(F)(F)F)nn5)cc4=O)cc31)CNCCC2 [Example 28, hydrochloride]
C = Cn1c2c(c3ccc(-n4ccc(OCc5ccc(Cl)cc5)cc4=O)nc31)CNCCC2 [Example 113, hydrochloride]
Arrange these compounds by their Ki, starting with the largest number. Write the labels, ordered according to the request. A, B, C
